tested on: SNB-19; test: NCI tumour cell line growth inhibition, 48 h
The source made the active and inactive calls. Cut-off read from the data, not from the text of the source: active = GI50 up to about 1.1 µM and inactive = higher.
Labels: active, inactive

[
  {
    "COMPOUND": "CC(=O)NC1=C(N)C(=O)c2ccccc2C1=O",
    "CLASSIFICATION": "inactive"
  },
  {
    "COMPOUND": "CC(=O)NCCC1CN(C(=O)/C=C/I)c2ccccc21 (configuration not stated)",
    "CLASSIFICATION": "inactive"
  },
  {
    "COMPOUND": "COc1c(O)ccc(/C=N/NC(=S)NCOCCOC(C)=O)c1OC",
    "CLASSIFICATION": "inactive"
  },
  {
    "COMPOUND": "CN1NC2(CCCCC2)ON=C1c1ccccc1",
    "CLASSIFICATION": "inactive"
  },
  {
    "COMPOUND": "Cc1ccc(NC(=O)C(Cc2c[nH]c3ccccc23)NC(=O)Oc2ccccc2)cc1C (configuration not stated)",
    "CLASSIFICATION": "inactive"
  },
  {
    "COMPOUND": "O=C(O)CN(CC(=O)O)C(C(=O)O)c1ccccc1 (configuration not stated)",
    "CLASSIFICATION": "inactive"
  },
  {
    "COMPOUND": "COc1cc(/C=C2\\C(=O)N(c3cccc(NC(C)=O)c3)C(c3ccccc3)S2(=O)=O)cc(OC)c1OC (configuration not stated)",
    "CLASSIFICATION": "inactive"
  },
  {
    "COMPOUND": "C=CCC(O)c1cc(OC)ccc1OC (configuration not stated)",
    "CLASSIFICATION": "inactive"
  },
  {
    "COMPOUND": "CCOC(=O)C(NCc1ccc2c(c1)OCO2)(NC(=O)c1ccccc1)C(F)(F)F (configuration not stated)",
    "CLASSIFICATION": "inactive"
  },
  {
    "COMPOUND": "Nc1cc(CO)cc(Nc2c3ccccc3nc3occc23)c1",
    "CLASSIFICATION": "inactive"
  },
  {
    "COMPOUND": "COC(=O)c1cc2cc(OC)c(OC)cc2cc(C(=O)OC)c1=O",
    "CLASSIFICATION": "inactive"
  },
  {
    "COMPOUND": "CCOC(=O)c1[nH]c(Br)c(-c2ccc(OC)c(OC)c2)c1Br",
    "CLASSIFICATION": "active"
  },
  {
    "COMPOUND": "COC(=O)C(Cl)=C1CC1",
    "CLASSIFICATION": "inactive"
  },
  {
    "COMPOUND": "O=C1C=C(c2[nH]c3ccccc3c2C2=CC(=O)c3ccccc3C2=O)C(=O)c2ccccc21",
    "CLASSIFICATION": "inactive"
  },
  {
    "COMPOUND": "O=C1c2cccc3cc4ccccc4c(c23)C(=O)N1CCCNCCNCCCN1C(=O)c2cccc3cc4ccccc4c(c23)C1=O",
    "CLASSIFICATION": "active"
  },
  {
    "COMPOUND": "ClC(Cl)=C(Cl)C1(Cl)CC1COCc1ccccc1 (configuration not stated)",
    "CLASSIFICATION": "inactive"
  },
  {
    "COMPOUND": "CCN(CC)c1ccc(C2NC(=O)c3ccccc3N2)cc1 (configuration not stated)",
    "CLASSIFICATION": "inactive"
  },
  {
    "COMPOUND": "CCN1C[C@]2(C)CC[C@H](OC)C34C1C([C@H](OC(C)=O)[C@@H]32)[C@@]1(OC)C[C@H](OC)[C@H]2C[C@@H]4[C@@H]1[C@H]2O",
    "CLASSIFICATION": "inactive"
  },
  {
    "COMPOUND": "NC(=S)N1N=C2CCCCCC[C@@H]2[C@H]1c1ccccc1",
    "CLASSIFICATION": "inactive"
  },
  {
    "COMPOUND": "CCOC(C)C(/C=N/NC(N)=S)=NNC(N)=S (configuration not stated)",
    "CLASSIFICATION": "inactive"
  },
  {
    "COMPOUND": "CC1=Nc2ccccc2/C1=C\\c1c(C)[nH]c2ccccc12",
    "CLASSIFICATION": "inactive"
  },
  {
    "COMPOUND": "Cc1cccc2c1C(=O)[C@](C)([C@]1(C)Nc3cccc(C)c3C1=O)N2",
    "CLASSIFICATION": "inactive"
  }
]

----------
Each entry below carries its reported GI50.
tested on: SNB-19; assay: NCI tumour cell line growth inhibition, 48 h
Calls of active or inactive are those of the source. No stated cut-off is given here; in the data, active = GI50 up to about 1.1 µM and inactive = higher.

[
  {
    "MOLECULE": "COC(=O)C(=O)Cc1nc2ccccc2o1",
    "GI50": "> 100 µM (inactive)"
  },
  {
    "MOLECULE": "CC1=Nc2ccccc2S(=O)(=O)N1",
    "GI50": "> 100 µM (inactive)"
  },
  {
    "MOLECULE": "COc1cccc(CSCC(=O)O)c1",
    "GI50": "> 100 µM (inactive)"
  },
  {
    "MOLECULE": "COc1ccc(N2C(=O)C3CC(c4ccc(C)cc4)c4c([nH]c5ccccc45)C3C2=O)cc1 (stereo unspecified)",
    "GI50": "12.4 µM (inactive)"
  },
  {
    "MOLECULE": "C=C(C)[C@@H]1CC[C@]2(C)CC[C@]3(C)[C@H](CC[C@@H]4[C@@]5(C)CC[C@H](O)C(C)(C)[C@@H]5CC[C@]43C)[C@@H]12",
    "GI50": "> 47.3 µM (inactive)"
  },
  {
    "MOLECULE": "O=C(c1ccco1)n1c2ccc(Br)cc2c2nc3ccccc3nc21",
    "GI50": "23.2 µM (inactive)"
  },
  {
    "MOLECULE": "Cc1cc(Cl)ccc1NC(=O)C1C(=O)N(c2ccc(Cl)cc2C)C(=O)/C1=N\\NC(N)=S (stereo unspecified)",
    "GI50": "37.3 µM (inactive)"
  },
  {
    "MOLECULE": "COCc1nc2c(OC)c(-c3nc4ccc(N5CCN(C)CC5)cc4[nH]3)cc(OC)c2[nH]1",
    "GI50": "48.8 µM (inactive)"
  },
  {
    "MOLECULE": "Cc1c(O)c(=O)ccn1CCc1c[nH]c2ccccc12",
    "GI50": "6.81 µM (inactive)"
  },
  {
    "MOLECULE": "N#CC(c1cc(Cl)ncn1)c1nc2cc(C(F)(F)F)ccc2s1 (stereo unspecified)",
    "GI50": "3.83 µM (inactive)"
  },
  {
    "MOLECULE": "C=C(C)[C@H]1C=C[C@@H](OC(C)=O)[C@@]2(COC(C)=O)[C@H](OC(=O)CCC)[C@H]3[C@@H](OC(C)=O)[C@@H](C)C[C@]3(O)C(=O)[C@@](C)(OC(C)=O)[C@H]12",
    "GI50": "66.2 µM (inactive)"
  },
  {
    "MOLECULE": "CCOC(=O)C(C(=O)OCC)S(C)(=O)=O",
    "GI50": "> 100 µM (inactive)"
  },
  {
    "MOLECULE": "O=C1c2ccccc2-c2c1c1ccccc1c(=O)n2-c1cccnc1",
    "GI50": "24.6 µM (inactive)"
  },
  {
    "MOLECULE": "O=C(O)C(CO)NC(=O)n1c2ccccc2c2ccccc21 (stereo unspecified)",
    "GI50": "> 100 µM (inactive)"
  },
  {
    "MOLECULE": "Fc1cc2nc3n(c2cc1F)C(c1c(Cl)cccc1Cl)SC3 (stereo unspecified)",
    "GI50": "14 µM (inactive)"
  },
  {
    "MOLECULE": "C[C@@](Br)(C(=O)O)[C@H](Br)C(=O)O",
    "GI50": "> 100 µM (inactive)"
  },
  {
    "MOLECULE": "O=C1c2ccccc2C(=O)C2C3c4ccccc4C(c4ccccc43)C12 (stereo unspecified)",
    "GI50": "26.9 µM (inactive)"
  },
  {
    "MOLECULE": "CC(C)=CCC/C(C)=C/CC/C(C)=C/[C@@H]1[C@@H](CO)[C@]1(C)CC/C=C(\\C)CCC=C(C)C",
    "GI50": "> 100 µM (inactive)"
  },
  {
    "MOLECULE": "CN(C)CCCNc1c(C#N)[n+]([O-])c2cc(Cl)ccc2[n+]1[O-]",
    "GI50": "26.2 µM (inactive)"
  },
  {
    "MOLECULE": "Cn1cnc([N+](=O)[O-])c1Sc1nnc(C(F)(F)F)n1C",
    "GI50": "> 100 µM (inactive)"
  },
  {
    "MOLECULE": "CN(C)CCCNc1c2c(=O)n(C)c(=O)nc-2n(C)c2ccccc12",
    "GI50": "6.56 µM (inactive)"
  },
  {
    "MOLECULE": "N#C[BH2-][n+]1cn(C2CC(O)C(COP(=O)(O)OC3CC(n4c[n+]([BH2-]C#N)c5c(=O)[nH]c(N)nc54)OC3CO)O2)c2nc(N)[nH]c(=O)c21 (stereo unspecified)",
    "GI50": "> 100 µM (inactive)"
  },
  {
    "MOLECULE": "C=CCCCN1CCCCC1=S",
    "GI50": "> 100 µM (inactive)"
  },
  {
    "MOLECULE": "CSc1c(CC(=O)Nc2ccc(Cl)cc2)n(Cc2ccccc2)c2ccccc12",
    "GI50": "46.9 µM (inactive)"
  },
  {
    "MOLECULE": "C=CCNC(=S)NNC(=O)c1c(C)nc2sccn12",
    "GI50": "> 100 µM (inactive)"
  },
  {
    "MOLECULE": "CC12c3c4cc(Br)cc3Oc3cc(Br)cc(c31)Oc1cc(Br)cc(c12)O4",
    "GI50": "> 100 µM (inactive)"
  },
  {
    "MOLECULE": "Nn1c(S)nnc1N/N=C1/C(=O)Nc2ccccc21",
    "GI50": "55.2 µM (inactive)"
  },
  {
    "MOLECULE": "O=c1[nH]nc(-c2ccccc2)n1/N=C/c1ccncc1",
    "GI50": "> 100 µM (inactive)"
  },
  {
    "MOLECULE": "Cc1nc2[nH]ccn2c(=O)c1CCCl",
    "GI50": "57.1 µM (inactive)"
  },
  {
    "MOLECULE": "COc1ccc(/C=C2\\CCC(C)(CN(C)C)C2=O)cc1 (stereo unspecified)",
    "GI50": "6.18 µM (inactive)"
  },
  {
    "MOLECULE": "CC1=CC(=O)C2=C(C)CCC3C(C)C(=O)OC3C12 (stereo unspecified)",
    "GI50": "> 100 µM (inactive)"
  },
  {
    "MOLECULE": "O=C(c1ccccc1)c1c(CNCc2ccccc2)n(C(=O)c2ccccc2)c2ccccc12",
    "GI50": "22.8 µM (inactive)"
  },
  {
    "MOLECULE": "COc1ccc(/C=C2\\N=C(c3ccccc3)N(NC3=NC(=O)CC(=O)N3)C2=O)cc1",
    "GI50": "> 100 µM (inactive)"
  },
  {
    "MOLECULE": "CCOC(C/N=c1/nc(N(C)C)ss1)OCC",
    "GI50": "> 67.1 µM (inactive)"
  },
  {
    "MOLECULE": "O=C(c1cccs1)N(C(=O)N1CCN(c2ccccc2)CC1)S(=O)(=O)c1ccccc1",
    "GI50": "27 µM (inactive)"
  },
  {
    "MOLECULE": "NC(=O)N/N=C(/c1nc2ccc([N+](=O)[O-])cc2nc1O)C(O)c1ccco1 (stereo unspecified)",
    "GI50": "> 100 µM (inactive)"
  },
  {
    "MOLECULE": "O=C(O)C1=Cc2cccc3cccc(c23)C1=O",
    "GI50": "> 100 µM (inactive)"
  },
  {
    "MOLECULE": "FC(F)(F)c1ccc(Cc2nc3cc4ccccc4cc3[nH]2)cc1",
    "GI50": "45.7 µM (inactive)"
  },
  {
    "MOLECULE": "CCC(C(=O)C(=O)OC)P1(=O)OC(C)(C)CN1C(C)(C)C (stereo unspecified)",
    "GI50": "> 100 µM (inactive)"
  },
  {
    "MOLECULE": "CC[C@]12C=CCN3CC[C@@]4(c5cc(Br)c(OC)c([N+](=O)[O-])c5N(C)[C@H]4[C@@](O)(C(=O)OC)[C@@H]1OC(C)=O)[C@@H]32",
    "GI50": "71.9 µM (inactive)"
  },
  {
    "MOLECULE": "N#CC1(C#N)C(C#N)(C#N)C1(C#N)C(N)=O",
    "GI50": "> 100 µM (inactive)"
  }
]
